# IC50 against Tyrosine-protein kinase JAK1 (Homo sapiens, UniProt P23458), merged from multiple literature sources

[
  {
    "Compound": "Cn1cc(-c2cc3nccn3c(-c3cnn(C4(CCF)CN(S(=O)(=O)C(F)(F)F)C4)c3)n2)cn1",
    "Test readout": "IC50",
    "Reported result": "100 to 1000 nM"
  }
]

stdin: State the measured IC50 (Tyrosine-protein kinase JAK1 (Homo sapiens, UniProt P23458)) of "Cc1cnc2nc1Nc1cccc(c1)CCCNC(=O)c1ccc(cc1F)-c1cnc(F)c(c1)N2"
stdout: < 10 nM

stdin: Report its IC50 with Tyrosine-protein kinase JAK1 (Homo sapiens, UniProt P23458) as the test system: "Cc1nc2cnc3[nH]ccc3c2n1N1CCC(CC#N)CC1"
stdout: 0.17 nM

stdin: Report measured IC50 on Tyrosine-protein kinase JAK1 (Homo sapiens, UniProt P23458); entry: "CNC(=O)c1coc(-c2cnc3[nH]ccc3c2N[C@H]2C[C@@H](C)CN(C(=O)CC#N)C2)n1"
stdout: 100 to 1000 nM

stdin: Provide IC50, system Tyrosine-protein kinase JAK1 (Homo sapiens, UniProt P23458), entry "O=C(Nc1nc2cccc(-c3ccc(N4CCOCC4)nc3)n2n1)C1CC1"
stdout: 1030 nM

stdin: // output IC50; input Cc1cnc(Nc2cnn(C)c2)nc1NC1CC2CN(C(=O)CC#N)CC2C1 (stereo not shown) ; system Tyrosine-protein kinase JAK1 (Homo sapiens, UniProt P23458)
stdout: 5 nM

stdin: Output reported IC50 of the compound "Cc1nn(C)cc1Nc1ncc(Cl)c(N(C)C2CCN(c3ccc(C#N)cn3)CC2)n1" on Tyrosine-protein kinase JAK1 (Homo sapiens, UniProt P23458).
stdout: 1 nM

stdin: Give measured IC50 for "CC1(C)[C@H](Nc2c(C(N)=O)cnn3cc(-c4cccc5ncccc45)cc23)CC[C@]1(C)N" (Tyrosine-protein kinase JAK1 (Homo sapiens, UniProt P23458)).
stdout: 5.4 nM

stdin: // fetch IC50 for "C=CCCNc1nc(Nc2ccc3c(c2)NC[C@H](O)CO3)ncc1C(N)=O" ; system: Tyrosine-protein kinase JAK1 (Homo sapiens, UniProt P23458)
stdout: < 10 nM

stdin: Enter recorded IC50 with Tyrosine-protein kinase JAK1 (Homo sapiens, UniProt P23458) for Cc1nn(C(CC#N)C2CC2)cc1-c1nc(-c2cnn(C)c2)cc2nccn12 (stereo not shown) here.
stdout: > 1000 nM

stdin: Fill in: IC50 on Tyrosine-protein kinase JAK1 (Homo sapiens, UniProt P23458), entry "Cc1ccc(NC(=O)c2cc(F)cc(C(F)(F)F)c2)cc1-c1ccc2[nH]c3ncncc3c2c1"
stdout: > 1000 nM

stdin: Would you please give the reported IC50 of "O=C1NCCCCOCc2cc(ccc2N2CCOCC2)Nc2nccc(n2)-c2ccc1cc2[N+](=O)[O-]" with Tyrosine-protein kinase JAK1 (Homo sapiens, UniProt P23458)?
stdout: 1000 to 10000 nM

stdin: Please indicate recorded IC50 of "CS(=O)(=O)CCn1cc(-c2cc3nccn3c(-c3ccn(C4(CC#N)CN(CC(F)(F)F)C4)n3)n2)cn1" measured with Tyrosine-protein kinase JAK1 (Homo sapiens, UniProt P23458).
stdout: 100 to 1000 nM

stdin: Quote Tyrosine-protein kinase JAK1 (Homo sapiens, UniProt P23458) IC50 for entry "Cc1cnc2nc1NCCCCCNC(=O)c1ccc(cc1C(=O)NCc1ccccc1)-c1cnc(F)c(c1)N2" .
stdout: 1000 to 10000 nM

stdin: With Tyrosine-protein kinase JAK1 (Homo sapiens, UniProt P23458) as the test system, provide measured IC50 for this compound: "CCCS(=O)(=O)N[C@H]1C[C@@H](Nc2c(-c3nnc(C)s3)cnc3[nH]ccc23)C1"
stdout: 10 to 100 nM

stdin: Retrieve IC50 on Tyrosine-protein kinase JAK1 (Homo sapiens, UniProt P23458); query CC(CO)c1ccc(Nc2nccc(-c3ccc(NC(=O)[C@@H]4CC4(F)F)nc3)n2)cn1 (stereo partly shown)
stdout: 25 nM
